Each recorded value in this set is attributed to paper PMC11952234.

tested on: insulin receptor (IR); interaction of IR-Rluc with IRS1-YFP in HEK293 cells (Homo sapiens, UniProt P06213)
Construct: expressed in transfected cells; host or cells: HEK293 cells, transient co-transfection; plasmids provided by Dr. Tarik Issad (Cochin Institute, Paris)
Sequence (P06213 28-758 limits assumed): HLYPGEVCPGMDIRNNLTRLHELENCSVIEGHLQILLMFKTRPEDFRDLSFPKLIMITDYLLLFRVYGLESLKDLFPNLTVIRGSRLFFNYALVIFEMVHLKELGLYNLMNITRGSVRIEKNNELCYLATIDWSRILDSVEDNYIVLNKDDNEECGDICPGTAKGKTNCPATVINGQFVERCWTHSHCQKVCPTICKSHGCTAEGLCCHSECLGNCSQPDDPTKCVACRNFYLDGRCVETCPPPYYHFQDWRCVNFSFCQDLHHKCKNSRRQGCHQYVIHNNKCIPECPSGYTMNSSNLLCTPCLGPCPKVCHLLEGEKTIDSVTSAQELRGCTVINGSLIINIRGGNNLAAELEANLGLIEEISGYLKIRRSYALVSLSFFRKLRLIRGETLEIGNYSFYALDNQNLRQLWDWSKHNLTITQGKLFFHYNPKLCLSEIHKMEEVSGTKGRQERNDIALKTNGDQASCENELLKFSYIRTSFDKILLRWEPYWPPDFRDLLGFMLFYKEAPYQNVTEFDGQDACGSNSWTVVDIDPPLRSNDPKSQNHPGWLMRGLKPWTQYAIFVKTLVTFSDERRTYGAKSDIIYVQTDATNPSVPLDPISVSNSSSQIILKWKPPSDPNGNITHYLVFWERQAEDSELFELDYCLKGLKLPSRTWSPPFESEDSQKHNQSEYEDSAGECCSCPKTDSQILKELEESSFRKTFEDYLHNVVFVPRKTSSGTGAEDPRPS
Sequence (P06213 763-1382 limits assumed): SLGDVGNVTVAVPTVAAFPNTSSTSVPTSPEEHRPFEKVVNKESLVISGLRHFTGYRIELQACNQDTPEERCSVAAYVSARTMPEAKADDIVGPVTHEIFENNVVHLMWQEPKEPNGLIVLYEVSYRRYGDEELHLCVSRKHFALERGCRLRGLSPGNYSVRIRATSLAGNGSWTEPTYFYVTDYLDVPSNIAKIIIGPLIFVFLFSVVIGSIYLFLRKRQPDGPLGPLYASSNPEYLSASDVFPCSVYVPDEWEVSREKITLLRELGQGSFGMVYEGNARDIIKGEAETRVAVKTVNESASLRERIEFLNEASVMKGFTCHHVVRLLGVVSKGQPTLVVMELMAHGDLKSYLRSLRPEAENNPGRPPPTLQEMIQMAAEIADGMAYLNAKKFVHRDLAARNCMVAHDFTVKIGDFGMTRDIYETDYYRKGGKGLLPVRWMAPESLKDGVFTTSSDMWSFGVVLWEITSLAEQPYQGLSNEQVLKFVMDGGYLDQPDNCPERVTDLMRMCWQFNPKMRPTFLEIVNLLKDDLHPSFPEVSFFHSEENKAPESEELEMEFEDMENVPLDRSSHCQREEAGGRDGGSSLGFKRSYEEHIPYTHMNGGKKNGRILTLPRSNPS
experimental protocol: BRET assay of IR activation (IR-Rluc/IRS1-YFP), single treatment, dose-response
Format: cell-based
condition: HEK293, read-out: BRET, % of the maximal response of insulin, Average, peptide 0.1 mg/ml; HEK293, 1 hour, 37°C; minimal data set for Figure 1, average
Residues, ends and D or L forms follow the SMILES beside them.
metric name: Emax (%)
Lab book: enter the figure in %, no units written.

molecule	Emax (%)
CC[C@H](C)[C@H](NC(=O)[C@@H]1CCCN1C(=O)[C@@H](N)Cc1ccc(O)cc1)C(=O)O [Peptide P9, YPI] (H-Tyr-Pro-Ile-OH; N-terminus and C-terminus assumed)	40.2

Entry CSCC[C@H](NC(=O)[C@H](Cc1c[nH]cn1)NC(=O)[C@H](CS)NC(=O)[C@@H]1CCCN1C(=O)[C@H](CC(C)C)NC(=O)[C@@H]1CCCN1C(=O)[C@@H]1CCCN1C(=O)[C@H](CC(C)C)NC(=O)[C@H](CS)NC(=O)[C@H](CS)NC(=O)[C@H](C)NC(=O)[C@@H](NC(=O)[C@H](C)NC(=O)[C@@H]1CCCN1)C(C)C)C(=O)O [Peptide P2] (H-PAVACCLPPLPCHM-OH; N-terminus and C-terminus assumed) has what Emax?
59.2

Now consider CC(C)[C@H](N)C(=O)N1CCC[C@H]1C(=O)N[C@@H](Cc1ccccc1)C(=O)O [Peptide P7, VPF] (H-Val-Pro-Phe-OH; N-terminus and C-terminus assumed) and answer again.
40.4

Try the molecule CC(C)C[C@H](N)C(=O)N1CCC[C@H]1C(=O)N[C@H](C(=O)N1CCC[C@H]1C(=O)O)C(C)C [Peptide P6, LPVP] (H-LPVP-OH; N-terminus and C-terminus assumed)
45.6

And CC(C)C[C@H](N)C(=O)N1CCC[C@H]1C(=O)N[C@H](C(=O)N1CCC[C@H]1C(=O)N[C@@H](CCC(N)=O)C(=O)O)C(C)C [Peptide P3, LPVPQ] (H-LPVPQ-OH; N-terminus and C-terminus assumed) ?
47.7

Also CC(C)C[C@H](NC(=O)[C@H](Cc1ccccc1)NC(=O)[C@@H]1CCCN1C(=O)[C@H](CCCNC(=N)N)NC(=O)[C@@H](N)CC(C)C)C(=O)O [Peptide P1, LRPFL] (H-LRPFL-OH) ?
58.5
